Molecular target: T1, human transportin 1 (Trn1, residues 1-890) (human, UniProt Q92973-2 1-890)
T1 construct: transportin 1 (Trn1), human, full-length, residues 1-890; numbers count on: the 890-residue form; Cloned in pGEX-4T-3 with a TEV site; clone was a gift from Y. M. Chook; source: E. coli BL21 (DE3), purified (glutathione Sepharose, TEV cleavage, HiTrap Q FF, Superdex 200)
T1 sequence (looked up): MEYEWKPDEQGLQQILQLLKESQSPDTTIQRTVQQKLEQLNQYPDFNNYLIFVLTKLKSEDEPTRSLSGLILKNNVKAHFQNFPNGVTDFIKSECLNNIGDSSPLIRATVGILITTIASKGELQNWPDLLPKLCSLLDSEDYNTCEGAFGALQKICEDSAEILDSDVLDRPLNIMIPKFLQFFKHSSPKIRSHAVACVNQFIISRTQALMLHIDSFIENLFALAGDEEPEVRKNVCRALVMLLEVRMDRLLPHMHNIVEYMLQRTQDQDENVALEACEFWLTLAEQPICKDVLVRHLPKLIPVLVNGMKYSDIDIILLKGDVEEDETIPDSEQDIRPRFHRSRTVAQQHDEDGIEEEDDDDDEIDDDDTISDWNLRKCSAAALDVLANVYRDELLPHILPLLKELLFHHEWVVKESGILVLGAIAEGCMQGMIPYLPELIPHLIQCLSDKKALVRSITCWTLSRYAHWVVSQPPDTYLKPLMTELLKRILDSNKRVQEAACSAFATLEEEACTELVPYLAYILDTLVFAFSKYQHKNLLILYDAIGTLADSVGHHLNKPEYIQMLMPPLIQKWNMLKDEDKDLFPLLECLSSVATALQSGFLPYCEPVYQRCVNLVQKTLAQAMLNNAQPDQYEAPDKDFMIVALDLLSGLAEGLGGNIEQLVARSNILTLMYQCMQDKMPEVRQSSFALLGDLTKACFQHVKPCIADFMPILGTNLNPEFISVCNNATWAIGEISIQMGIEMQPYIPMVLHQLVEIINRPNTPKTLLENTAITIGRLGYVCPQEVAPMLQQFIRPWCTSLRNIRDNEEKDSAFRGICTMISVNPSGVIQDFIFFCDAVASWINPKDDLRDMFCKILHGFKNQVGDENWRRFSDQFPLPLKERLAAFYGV
Test: SPR; BIAcore 3000, 25°C; Trn1 immobilised on a CM5 chip by amine coupling (about 8600 RU); same running buffer; kd too fast to be fit, KD from steady state equilibrium binding against the concentration of the injected protein
Conditions: both partners purified
metric_name: pKd
Bear in mind: pKd is minus log10 of a mol/L concentration; give just that figure.

Below: 5 binders and their reported pKd.
[[record]]
binder = "RGGRGGGDRGGFGPGKMDSRGEHRQDRRERPA (domain or fragment, human, UniProt P35637 495-526, looked up, Designed from the structure; not found in familial ALS patients; not shown: GST, N-terminal, cleaved) [FUS-NLS(Y526A)]"
metric_name = "pKd"
result = 6.05

[[record]]
binder = "RGGRGGGDRGGFGPGEMDSRGEHRQDRRERPY (domain or fragment, human, UniProt P35637 495-526, looked up, ALS-associated mutation found in patients; made by site-directed mutagenesis; not shown: GST, N-terminal, cleaved) [FUS-NLS(K510E)]"
metric_name = "pKd"
result = 6.82

[[record]]
binder = "RGGRGGGDRGGFGPGKMDSRGEHRQDRGERPY (domain or fragment, human, UniProt P35637 495-526, looked up, ALS-associated mutation found in patients; made by site-directed mutagenesis; not shown: GST, N-terminal, cleaved) [FUS-NLS(R522G)]"
metric_name = "pKd"
result = 6.46

[[record]]
binder = "RGGRGGGDRGGFGPGKMDSRGEHRQDRRERLY (domain or fragment, human, UniProt P35637 495-526, looked up, ALS-associated mutation found in patients; made by site-directed mutagenesis; not shown: GST, N-terminal, cleaved) [FUS-NLS(P525L)]"
metric_name = "pKd"
result = 5.92

[[record]]
binder = "RGGRGGGDRGGFGPGKMDSRGEPRQDRRERPY (domain or fragment, human, UniProt P35637 495-526, looked up, ALS-associated mutation found in patients; made by site-directed mutagenesis; not shown: GST, N-terminal, cleaved) [FUS-NLS(H517P)]"
metric_name = "pKd"
result = 6.85


Ask: # query: pKd of entry RGGRGGGDRGGFGPGKMDSGGEHRQDRRERPY (domain or fragment, human, UniProt P35637 495-526, looked up, ALS-associated mutation found in patients; made by site-directed mutagenesis; not shown: GST, N-terminal, cleaved) [FUS-NLS(R514G)]
Reply: 7.17

Ask: # query: pKd of entry RGGRGGGDRGGFGPGKMDSRGEHGQDRRERPY (domain or fragment, human, UniProt P35637 495-526, looked up, ALS-associated mutation found in patients; made by site-directed mutagenesis; not shown: GST, N-terminal, cleaved) [FUS-NLS(R518G)]
Reply: 6.82
